This collection of values is drawn from paper PMC11901561.

test: ABTS radical scavenging test (spectrophotometric, 734 nm); settings: value given in text in mM

>  <compound>
CC(=O)Oc1cc[c]([Pd@SP2]([Br])([PH](c2ccccc2)(c2ccccc2)c2ccccc2)[PH](c2ccccc2)(c2ccccc2)c2ccccc2)cc1 [Complex 5]

>  <EC50>
0.135 mM

$$$$

* * *

test: ABTS radical scavenging test (spectrophotometric, 734 nm); conditions: concentration scavenging 50% of ABTS•+; MeOH, 30 min; mean ± SD
The label T is reserved for EC50 strictly under 10 µM; F covers values equal to or above it.

>  <compound>
[Cl][Pd@SP2]([c]1ccccc1)([PH](c1ccccc1)(c1ccccc1)c1ccccc1)[PH](c1ccccc1)(c1ccccc1)c1ccccc1

>  <assigned.category>
F

$$$$
>  <compound>
CC(=O)Oc1cc[c]([Pd@SP2]([Cl])([PH](c2ccccc2)(c2ccccc2)c2ccccc2)[PH](c2ccccc2)(c2ccccc2)c2ccccc2)cc1

>  <assigned.category>
F

$$$$
>  <compound>
O=c1c(O)c(-c2ccc(O)c(O)c2)oc2cc(O)cc(O)c12 [Qrcn, Quercetin, reference compound]

>  <assigned.category>
T

$$$$
>  <compound>
[I][Pd]([c]1ccccc1)([PH](c1ccccc1)(c1ccccc1)c1ccccc1)[PH](c1ccccc1)(c1ccccc1)c1ccccc1

>  <assigned.category>
T

$$$$
>  <compound>
[Br][Pd@SP2]([c]1ccccc1)([PH](c1ccccc1)(c1ccccc1)c1ccccc1)[PH](c1ccccc1)(c1ccccc1)c1ccccc1

>  <assigned.category>
F

$$$$
>  <compound>
COc1cc[c]([Pd@SP2]([Cl])([PH](c2ccccc2)(c2ccccc2)c2ccccc2)[PH](c2ccccc2)(c2ccccc2)c2ccccc2)cc1

>  <assigned.category>
F

$$$$
>  <compound>
COc1cc[c]([Pd@SP2]([Br])([PH](c2ccccc2)(c2ccccc2)c2ccccc2)[PH](c2ccccc2)(c2ccccc2)c2ccccc2)cc1

>  <assigned.category>
T

$$$$
>  <compound>
COc1cc[c]([Pd@SP2]([I])([PH](c2ccccc2)(c2ccccc2)c2ccccc2)[PH](c2ccccc2)(c2ccccc2)c2ccccc2)cc1

>  <assigned.category>
T

$$$$
>  <compound>
CC(=O)Oc1cc[c]([Pd@SP2]([I])([PH](c2ccccc2)(c2ccccc2)c2ccccc2)[PH](c2ccccc2)(c2ccccc2)c2ccccc2)cc1

>  <assigned.category>
F

$$$$
>  <compound>
CC(=O)Oc1cc[c]([Pd@SP2]([Br])([PH](c2ccccc2)(c2ccccc2)c2ccccc2)[PH](c2ccccc2)(c2ccccc2)c2ccccc2)cc1

>  <assigned.category>
F

$$$$

* * *

Measured TEC50 accompanies every entry in the list below.
test: Antiradical efficiency (kinetic study via DPPH assay); details: time needed to reach the steady state at the EC50 concentration, DPPH

>  <compound>
COc1cc[c]([Pd@SP2]([Br])([PH](c2ccccc2)(c2ccccc2)c2ccccc2)[PH](c2ccccc2)(c2ccccc2)c2ccccc2)cc1 [Complex 2]

>  <scale.unit>
min

>  <TEC50>
16

$$$$
>  <compound>
[I][Pd]([c]1ccccc1)([PH](c1ccccc1)(c1ccccc1)c1ccccc1)[PH](c1ccccc1)(c1ccccc1)c1ccccc1 [Complex 7]

>  <scale.unit>
min

>  <TEC50>
66

$$$$
>  <compound>
CC(=O)Oc1cc[c]([Pd@SP2]([I])([PH](c2ccccc2)(c2ccccc2)c2ccccc2)[PH](c2ccccc2)(c2ccccc2)c2ccccc2)cc1 [Complex 4]

>  <scale.unit>
min

>  <TEC50>
78

$$$$
